Overview of recorded IC50 for various compounds
measured.on: ferroportin (Fpn) (Mus musculus, UniProt Q9JHI9)
Construct: endogenous in cells
Sequence (Q9JHI9 1-570): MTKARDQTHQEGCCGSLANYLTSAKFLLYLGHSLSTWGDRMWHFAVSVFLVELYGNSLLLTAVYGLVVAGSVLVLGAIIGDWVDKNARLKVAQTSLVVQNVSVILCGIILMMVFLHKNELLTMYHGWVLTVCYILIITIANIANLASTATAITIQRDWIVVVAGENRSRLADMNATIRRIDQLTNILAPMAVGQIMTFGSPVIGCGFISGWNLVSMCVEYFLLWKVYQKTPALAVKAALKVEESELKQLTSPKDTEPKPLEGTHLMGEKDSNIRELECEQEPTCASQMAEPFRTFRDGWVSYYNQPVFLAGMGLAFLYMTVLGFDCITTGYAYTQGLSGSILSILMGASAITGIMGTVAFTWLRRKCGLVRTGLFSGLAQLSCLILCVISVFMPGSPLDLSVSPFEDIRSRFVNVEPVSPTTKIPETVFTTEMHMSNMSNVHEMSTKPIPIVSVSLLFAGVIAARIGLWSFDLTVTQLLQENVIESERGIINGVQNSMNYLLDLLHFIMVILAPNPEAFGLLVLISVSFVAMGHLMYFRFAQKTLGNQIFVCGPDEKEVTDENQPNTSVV
protocol.summary: Hepcidin Internalization Assay (J774)
measurement.context: J774 cells, TMR-hepcidin 25 nM, 2 hours; read-out: IC 50, average (AVE) of multiple measurements, hepcidin internalization assay

compound	IC50 [nM]
COc1cccnc1CNC(=O)c1coc(CCNCCc2nc3c4c(ccc3[nH]2)CCCC4)n1 [compound 50]	19
Cc1cccc(-c2ccc3[nH]c(CCNCCc4nc(C(=O)NCc5ncccc5F)co4)nc3c2)c1C [compound 84]	12
CCc1ccccc1-c1ccc2[nH]c(CCNCCc3nc(C(=O)NCc4ncccc4F)co3)nc2c1 [compound 71]	6
COc1cccnc1CNC(=O)c1coc(CCNCCc2nc3cc(-c4ccc(C)cc4)ccc3[nH]2)n1 [compound 74]	7
O=C(NCc1ncccc1F)c1coc(CCNCCc2nc3cc4c(cc3[nH]2)OCCO4)n1 [compound 34]	7
O=C(NCc1ccccn1)c1coc(CCNCCc2nc3cc(-c4ccc(F)cc4)ccc3[nH]2)n1 [compound 66]	68
O=C(NCc1ccc2c(ccc3ccccc32)n1)c1coc(CCNCCc2nc3ccccc3[nH]2)n1 [compound 6]	1600
O=C(NCc1ncccc1F)c1coc(CCNCCc2nc3c(ccc4ccccc43)[nH]2)n1 [compound 5]	13
COc1ccccc1-c1ccc2[nH]c(CCNCCc3nc(C(=O)NCc4ncccc4OC)co3)nc2c1 [compound 51]	17
COc1cccnc1CNC(=O)c1coc(CCNCCc2nc3cc(-n4cccc4)ccc3[nH]2)n1 [compound 54]	37
O=C(NCc1ccccn1)c1coc(CCNCCc2nc3cc(-c4cccc(F)c4)ccc3[nH]2)n1 [compound 69]	61
O=C(NCc1ncccc1F)c1coc(CCNCCc2nc3cc(-c4cccc5c4CCCC5)ccc3[nH]2)n1 [compound 82]	15
O=C(NCc1ncccc1F)c1coc(CCNCCc2nc3cc(-c4ccc(Cl)cc4)ccc3[nH]2)n1 [compound 57]	27
O=C(NCc1ncccc1F)c1coc(CCNCCc2nc3c4c(ccc3[nH]2)CCCC4)n1 [compound 39]	12
O=C(NCc1ncccc1F)c1coc(CCNCCc2nc3cc(CCc4ccccc4)ccc3[nH]2)n1 [compound 75]	2
O=C(NCc1ncccc1F)c1coc(CCNCCc2nc3cc(-c4cccc(-c5ncco5)c4)ccc3[nH]2)n1 [compound 87]	14
Cc1cccnc1CNC(=O)c1coc(CCNCCc2nc3cc(-c4ccccc4)ccc3[nH]2)n1 [compound 52]	26
O=C(NCc1ncccc1F)c1coc(CCNCCc2nc3cc(-c4ccccc4-c4ncco4)ccc3[nH]2)n1 [compound 86]	9
O=C(NCc1nc2ccccc2c2ccccc12)c1coc(CCNCCc2nc3c(ccc4ccccc43)[nH]2)n1 [compound 8]	6700
O=C(NCc1ncccc1F)c1coc(CCNCCc2nc3cc(C#Cc4cccnc4)ccc3[nH]2)n1 [compound 73]	2
COc1ccccc1-c1ccc2[nH]c(CCNCCc3nc(C(=O)NCc4ncccc4C)co3)nc2c1 [compound 49]	18
O=C(NCc1ncccc1F)c1coc(CCNCCc2nc3c(-c4cccc(Cl)c4)cccc3[nH]2)n1 [compound 28]	144
O=C(NCc1ncccc1F)c1coc(CCNCCc2nc3cc(-c4cccc(Cl)c4)ccc3[nH]2)n1 [compound 85]	11
